# method.notes: NCI Yeast Anticancer Drug Screen. Data for the mec2-1 strain (AID 157)
# run.parameters: S. cerevisiae mec2-1 strain, at 50.0 µM (retest, dose inferred, filed as 5.0)
This is part of a sample that, as a whole, favours compounds with a hit. Of some 79,000 tested, about 15% had one in any assay. Calls of active or inactive are those of the source. Rule as the data show it: active = growth inhibition above about 70%; inactive = the rest. Where a SMILES comes first, the peptide text is derived from it. The star is where a group is joined. X7 = Clc1c(Cl)c(Cl)c(O*)c(Cl)c1Cl; Boc = CC(C)(C)OC(=O)*; OBn = c1ccc(CO*)cc1; Bn = c1ccc(C*)cc1
Outcomes: label 1 = active, label 0 = inactive

>  <compound>
OC(CCl)c1ccc2ccc3c(c2c1)Nc1ccccc1S3 (stereo unspecified)

>  <group.label>
label 1

$$$$
>  <compound>
NC(=S)C(=S)N/C=C(/c1ccc(Cl)cc1)S(=O)(=O)Cc1ccc(Cl)cc1

>  <group.label>
label 1

$$$$
>  <compound>
O=C(CC(c1cccnc1)C(C(=O)c1ccc(Cl)cc1)C(CC(=O)c1ccc(Cl)cc1)c1cccnc1)c1ccc(Cl)cc1 (stereo unspecified)

>  <group.label>
label 1

$$$$
>  <compound>
COc1cc(/C=C2\CC(C)C/C(=C\c3ccc(O)c(OC)c3)C2=O)ccc1O (stereo unspecified)

>  <group.label>
label 1

$$$$
>  <compound>
Cc1ccc2c(c1)-c1cc(C)ccc1C2(O)c1ccccc1

>  <group.label>
label 0

$$$$
>  <compound>
COc1ccc(NS(=O)(=O)c2ccc(N=Cc3c4ccccc4nc4cc(Cl)ccc34)cc2)nn1

>  <group.label>
label 0

$$$$
>  <compound>
Cc1ccc(N2CC(O)CN(c3ccc(C)cc3)CC(O)C2)cc1 (stereo unspecified)

>  <group.label>
label 0

$$$$
>  <compound>
C=C(C)C1(C(=O)OCC(Cl)(Cl)Cl)NC(=O)C(NC(=O)COc2ccccc2)=CO1 (stereo unspecified)

>  <group.label>
label 0

$$$$
>  <compound>
CC1=C/C(=C(/c2ccc(O)c(C)c2)c2ccccc2C(=O)O)C=CC1=O

>  <group.label>
label 1

$$$$
>  <compound>
c1ccc2c(c1)Cc1nc3ccccc3nc1-2

>  <group.label>
label 1

$$$$
>  <compound>
c1ccc(C(CNCCN2CCCCCC2)C2CCCCC2)cc1 (stereo unspecified)

>  <group.label>
label 0

$$$$
>  <compound>
CC(C)CC(NC(=O)C(CCC(=O)OCc1ccccc1)NC(=O)OC(C)(C)C)C(=O)NC(COCc1ccccc1)C(=O)NC(Cc1ccccc1)C(=O)Oc1c(Cl)c(Cl)c(Cl)c(Cl)c1Cl (stereo unspecified) (Boc-E(OBn)LS(Bn)F-X7; configuration not given here)

>  <group.label>
label 0

$$$$
>  <compound>
COc1ccc(C2C3=C(CCCC3=O)Oc3cc4c(cc32)OCO4)c(OC)c1 (stereo unspecified)

>  <group.label>
label 1

$$$$
>  <compound>
O=C(/C=N/O)Nc1ccc(Cl)c(I)c1

>  <group.label>
label 1

$$$$
>  <compound>
CSc1nnc(CCC(=O)Nc2c(C)cccc2C(C)(C)C)o1

>  <group.label>
label 0

$$$$
>  <compound>
O=c1oc(-c2ccccc2)nc2ccccc12

>  <group.label>
label 0

$$$$
>  <compound>
O=C(O)C/C(=C\c1ccco1)C(=O)O

>  <group.label>
label 0

$$$$
>  <compound>
C1CCC(C2CCC(N3CCCCC3)CC2)CC1 (stereo unspecified)

>  <group.label>
label 1

$$$$
>  <compound>
O=C1C2Nc3ccccc3SC2C(=O)N1c1ccccc1C(F)(F)F (stereo unspecified)

>  <group.label>
label 0

$$$$
>  <compound>
COc1cc(Br)c(CC(NC=O)c2ccc3c(c2)OCO3)cc1OC (stereo unspecified)

>  <group.label>
label 1

$$$$
>  <compound>
CNC(C)C(=O)c1ccc2ccc3ccccc3c2c1 (stereo unspecified)

>  <group.label>
label 0

$$$$
>  <compound>
Cn1cnc(=S)c2[nH]cnc21

>  <group.label>
label 0

$$$$
>  <compound>
Cc1nn(C)c2ccc3ccccc3c(=O)c12

>  <group.label>
label 0

$$$$
>  <compound>
c1ccc2cc3c(cc2c1)Nc1c2ccccc2nc2cccc-3c12

>  <group.label>
label 0

$$$$
>  <compound>
Nc1c(C(=O)Nc2ccccc2)[n+]([O-])c2ccccc2[n+]1[O-]

>  <group.label>
label 0

$$$$
>  <compound>
O=[N+]([O-])c1ccccc1NCCO

>  <group.label>
label 0

$$$$

----------
Entries and their measured growth inhibition follow.
# method.notes: NCI Yeast Anticancer Drug Screen. Data for the sgs1 mgt1 strain (AID 161);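 also: 0% = growth of cultures given vehicle only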
# run.parameters: S. cerevisiae sgs1 mgt1 strain, at 5.0 µM (retest, dose inferred, filed as 0.5), stronger effect = higher value
Compounds without any hit were thinned out: in the full panel of roughly 79,000, 15% have a hit.

>  <molecule>
Nc1cc(Br)c2cccnc2c1O

>  <growth inhibition, %>
67

$$$$
>  <molecule>
CCCCN(CCCC)CCNc1ccc(NS(=O)(=O)c2ccccc2)c2sc3ccccc3c(=O)c12

>  <growth inhibition, %>
54

$$$$
>  <molecule>
O=C/C(Br)=C\c1ccccc1

>  <growth inhibition, %>
25

$$$$
>  <molecule>
CCCCCCCOc1ccc(C=O)cc1OC

>  <growth inhibition, %>
3

$$$$
>  <molecule>
CC1OC(CC(=O)O)Cc2c1c(O)c1c(O)cc(-c3cc(=O)c4c(=O)c5c(c(=O)c=4c3=O)CC(CC(=O)O)OC5C)c(O)c1c2O (stereo not given)

>  <growth inhibition, %>
-1

$$$$

----------
# method.notes: NCI Yeast Anticancer Drug Screen. Data for the sgs1 mgt1 strain (AID 161);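 also: 0% = growth of cultures given vehicle only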
# run.parameters: S. cerevisiae sgs1 mgt1 strain, at 50.0 µM (retest, dose inferred, filed as 5.0)
Compounds without any hit were thinned out: in the full panel of roughly 79,000, 15% have a hit. The source made the active and inactive calls. Cut-off read from the data, not from the text of the source: active = growth inhibition above about 70%; inactive = the rest.
Outcomes: active, inactive

>  <compound>
CCOC(=O)CC1=NC(=Nc2cc(Cl)ccc2Cl)SC1

>  <group.label>
inactive

$$$$
>  <compound>
CCN(CC)CC(O)CNc1cc(C)nc(/N=C(\N)Nc2ccc(Cl)c(Cl)c2)n1 (stereo not given)

>  <group.label>
inactive

$$$$
>  <compound>
O=[N+]([O-])c1ccc(Sc2ccc([N+](=O)[O-])o2)cc1

>  <group.label>
active

$$$$
>  <compound>
COC(=O)/C(=C\c1cn(C(C)=O)c2ccccc12)P(=O)(OC)OC

>  <group.label>
inactive

$$$$
>  <compound>
COC(=O)/C(=C/c1ccc(/C=C(/C(=O)O)c2ccc(OC)cc2)o1)c1ccccc1

>  <group.label>
active

$$$$
>  <compound>
COc1ccc2c(c1)C(O)=C(CC=C(C)C)C(=O)C2=O

>  <group.label>
inactive

$$$$
>  <compound>
c1ccc2c(c1)Cc1c-2nc2ccccc2c1N1CCOCC1

>  <group.label>
active

$$$$
>  <compound>
Cc1cccc(/C=N/Nc2cc(C)nc3ccccc23)n1

>  <group.label>
inactive

$$$$
>  <compound>
C(/Cc1ccc2c(c1)OCO2)=N\NC1=NCCCCN1

>  <group.label>
inactive

$$$$
>  <compound>
CCCCC#C[I+]c1ccccc1

>  <group.label>
inactive

$$$$

----------
# method.notes: NCI Yeast Anticancer Drug Screen. Data for the rad50 strain (AID 155);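 also: 0% = growth of vehicle-only cultures of the same strain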
# run.parameters: S. cerevisiae rad50 strain growth inhibition; at 50.0 µM; stronger effect = higher value
The panel holds about 79,000 compounds, 15% with a hit somewhere; the sample as a whole holds those more often.

>  <compound>
Oc1cc(Cc2ccccc2)c(Cc2ccccc2)cc1O

>  <growth inhibition, %>
89.2

$$$$
>  <compound>
O=C(O)CC1c2ccccc2-c2ccccc21

>  <growth inhibition, %>
87.7

$$$$
>  <compound>
Cn1c2c(c3ccccc31)CCN(CCN1CCN(c3cccc(Cl)c3)CC1)C2=O

>  <growth inhibition, %>
88.8

$$$$
>  <compound>
C/C=C/C/C=C/CCC(=O)C1OC1C(N)=O (centres undefined)

>  <growth inhibition, %>
92.3

$$$$

----------
# method.notes: NCI Yeast Anticancer Drug Screen. Data for the cln2 rad14 strain (AID 165);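 also: 0% = growth equal to vehicle treated cultures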
# run.parameters: S. cerevisiae cln2 rad14 strain, at 50.0 µM, stronger effect = higher value
Compounds without any hit were thinned out: in the full panel of roughly 79,000, 15% have a hit.
Label met when growth inhibition is at or above 90%; anything below gets not met.

>  <compound>
CN(C)CCCNc1ccc(O)c2c1C(=O)c1ccccc1C2=O

>  <group.label>
not met

$$$$
>  <compound>
CNC(=O)OCc1c(-c2ccccc2)c(-c2ccccc2)n(-c2ccc(OC)cc2)c1COC(=O)NC

>  <group.label>
not met

$$$$
>  <compound>
Clc1ccc(SSN2CCOCC2)cc1

>  <group.label>
not met

$$$$
>  <compound>
C=CCOC(=O)OCCCO

>  <group.label>
met

$$$$
>  <compound>
O=C1C(Cl)=C(c2ccccc2)C1Cl (stereo unspecified)

>  <group.label>
met

$$$$
